- Test summary: growth inhibitors of H69AR lung tumor, primary screen, human, duplicate replicates (AID 580);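 also: 100% = mean luminescence of untreated wells and 0% = no signal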
- Condition details: H69AR lung tumor cells viability, ATP luminescence, 72 h; at 10 µM; stronger effect = lower value
Readout: viability (%)
One number for each entry, in %.

Illustrative cases are given below, each with its answer.
COc1ccc(C(CC(=O)O)NC(=O)c2ccccc2)cc1OC (stereo unspecified) ... 83.6
Cc1ccccc1-n1c(=O)cc(N2CCN(C(=O)c3ccco3)CC2)[nH]c1=O ... 98.3

For every record below, what is its viability?
1. O=C(c1ccco1)N1CCN(C(=O)c2cc3c(s2)-c2ccccc2OC3)CC1
2. Cc1nc(-c2cccc(N)c2)cs1
3. O=C(O)CCCC(=O)Nc1ccc(Br)cc1C(=O)O
4. COc1cc(-c2noc(-c3cccc(Cl)c3)n2)cc(OC)c1OC

Result:
97
103
96.8
80.5

* * *

- Test summary: reducers of endogenous Her2 protein level, primary screen, SKBR3 breast tumor cells, AlphaScreen, ATP viability (AID 461);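 also: percent of carrier control wells set as 100% viability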
- Condition details: 18-24 h, measured here: SKBR3 viability, ATP luminescence, at 10 µM
Exercise: state measured viability for each of the compounds provided.
Give bare numbers, in %.

# count of solved cases: 4
O=C(CN1CCC(NC(=O)c2ccc(F)cc2)CC1)NCc1ccccc1F ... 96.5
COc1ccc(C(N)=O)cc1N ... 77.5
CCCOc1ccc([C@@H]2C3CN(C(=O)OCC)CC=C3C(C#N)=C(N)C2(C#N)C#N)cc1OC (stereo partly specified) ... 88
Cc1ccc(N2C(=O)c3ccccc3C2Nc2cccnc2)nc1 (stereo unspecified) ... 94

Please give viability for each item listed below.
1. CCCC(c1nnnn1Cc1ccc(OC)cc1)N1CCN(c2ccccc2OC)CC1 (stereo unspecified)
2. c1ccc(Nc2ccccc2Nc2ccccn2)nc1

Result:
[103, 138]

* * *

- Test summary: HUVEC growth inhibition – cell-based, human, primary screen (AID 575);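 also: 100% = median of untreated cell wells with 0.1% DMSO on each plate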
- Condition details: HUVEC proliferation, CellTiter-Glo luminescence, 72 h; at 10 µM; stronger effect = lower value
Readout: viability (%)
Numbers only, in %.

Guide cases for viability, answers given:
CC(C)(C)Cc1nc(-c2ccccn2)no1 ... 88.4
C=C(C)CSc1nnc(-c2cccc(S(=O)(=O)N(C)C)c2)n1-c1cc(OC)ccc1OC ... 95.4
O=C(O)CCc1ccc(-c2cccs2)o1 ... 95.9
O=C(Cn1cnc2ccccc2c1=O)NCCC(=O)N1CCN(c2ccccc2)CC1 ... 99.6
c1csc(-c2nc3nc4ccccc4nc3n2Cc2ccc3c(c2)OCO3)c1 ... 61.6

Provide the reported viability of each entry below, same order.
1. COc1cccc(C2C(C(=O)c3cc4ccccc4o3)=C(O)C(=O)N2CCN(C)C)c1OC (stereo not drawn)
2. CCc1nn2c(=O)cc(CSc3nc4sc5c(c4c(=O)n3C)CCCC5)nc2s1
3. O=C(Cn1cnc2c(nnn2Cc2ccc(Cl)cc2)c1=O)NCC1CCCO1 (stereo not drawn)

Result:
1. 96.8
2. 113
3. 101

Report viability for every entry below.
1. COc1ccc(OC)c(C2=Nn3c(nnc3C3CCCCC3)SC2)c1
2. CC(C)C1Cc2c(C#N)c(N)sc(=S)c2CO1 (stereo not drawn)
3. O=C(NCc1ccc2c(c1)OCO2)C1CCCN(S(=O)(=O)c2cccnc2)C1 (stereo not drawn)
4. CCOc1ccc(-n2c(=O)cc(N3CCN(c4ccccc4)CC3)[nH]c2=O)cc1

Result:
[75.4, 64.2, 101, 96.1]

Below are some compounds; for each one, tell me its viability.
1. NC(=O)COC(=O)CNC(=O)c1ccc(Cl)cc1
2. COc1cc(-c2nc(-c3cccc(C(F)(F)F)c3)no2)cc(OC)c1OC
3. CNC(=O)CSc1nnc(-c2cccc(S(=O)(=O)N3CCOCC3)c2)n1-c1ccc(F)cc1
4. Cc1nc2c(C(=O)O)cnn2c(C)c1Cc1ccccc1F

Result:
1. 86.1
2. 94.4
3. 99.9
4. 70.6

# per-item lookup of viability; items listed below
1. COc1cccc(C(=O)Nc2ccc(C)cc2)c1
2. Cc1ccc(C)c(S(=O)(=O)NCc2ccc(C(=O)N3CCN(C)CC3)cc2)c1
3. O=C(NCC(c1cccnc1)N1CCN(c2ccc(F)cc2)CC1)c1ccc(F)cc1 (stereo not drawn)
4. CCOC(=O)c1cc2cc(F)ccc2nc1C
5. COc1cccc(NC(=O)Nc2cccs2)c1
6. CCCNC(=O)Nc1ccccc1C(=O)Nc1ccc(OC)cc1
7. CCOC(OCC)P(=O)(C(C)C)C(C)C

Result:
1: 84.6; 2: 89.7; 3: 103; 4: 120; 5: 75; 6: 85.7; 7: 103
